This collection of values is drawn from paper PMC6560442.

# Tested on: PPO I
# Construct: first isoenzyme
# assay.text: quinone formation, absorbance at […] nm, Lineweaver-Burk
# Assay type: biochemical, Lens culinaris
# condition.notes: TRIS-HCl 50 mM pH 6.5 (standard assay); 1-30 mM substrate; partially purified enzyme
measured.metric: Km (µM)
Write it as a number; the unit µM goes unstated.

Examples with answers:
test_smiles=Cc1ccc(O)c(O)c1 unit_text=µM reported=3000
test_smiles=O=C(O)c1cc(O)c(O)c(O)c1 unit_text=µM reported=2250
test_smiles=Oc1ccccc1O unit_text=µM reported=1760

For the molecule shown here, "O=C(O)/C=C/c1ccc(O)c(O)c1" , give the reported Km. 3810
